Can you tell me IC50 for the items I'm about to list?
System Tested: Recombinant human renin (Homo sapiens, UniProt P00797)
Sequence (P00797 67-406): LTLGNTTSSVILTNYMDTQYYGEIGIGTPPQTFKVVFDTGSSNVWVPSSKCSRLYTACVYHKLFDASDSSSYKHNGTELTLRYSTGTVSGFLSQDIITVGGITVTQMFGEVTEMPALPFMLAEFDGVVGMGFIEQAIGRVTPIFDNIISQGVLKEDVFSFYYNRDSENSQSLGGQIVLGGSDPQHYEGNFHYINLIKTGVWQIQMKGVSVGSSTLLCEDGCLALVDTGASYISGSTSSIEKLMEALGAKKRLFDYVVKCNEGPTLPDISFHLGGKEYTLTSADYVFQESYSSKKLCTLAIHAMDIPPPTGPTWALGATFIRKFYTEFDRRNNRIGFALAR
Measurement Description: In vitro renin inhibitory activity assay (fluorescence, FRET peptide substrate)
Run Conditions: 37° C., one hour, substrate 4 μM, pH 7.4
Structures can show the parent of a compound that is named as a salt.
Answers are plain numbers, in nM.

Example compounds with recorded IC50:
COCCCOc1cc(C(=O)N(C(C)C)[C@@H]2CC[C@H](CCN(C(=O)Cc3ccccc3C(F)(F)F)C3CC3)NC2)ccc1OC [Example 74, trifluoroacetate]: 5.1
COCCCOc1cc(C(=O)N(C(C)C)[C@@H]2CC[C@H](CCN(C(=O)Cc3ccccn3)C3CC3)NC2)ccc1OC [Example 75, trifluoroacetate]: 4.7
COCCCOc1cc(C(=O)N(C(C)C)[C@H]2CNC[C@@H](COc3ccccc3-c3ccccc3)C2)ccc1OC (racemic) [Example 46, hydrochloride]: 790
COCCCOc1cc(C(=O)N(C[C@@H]2CCNC2)C(C)C)ccc1OC [Compound B, reference compound]: 2300
COCCCOc1cc(C(=O)N(C(C)C)[C@@H]2CC[C@H](CCN(C(=O)CC(C)(C)O)C3CC3)NC2)ccc1OC [Example 67, hydrochloride]: 12.9
CCCN(CCc1ccccc1)C(=O)OC[C@@H]1CNC[C@H](N(C(=O)c2ccc(OC)c(OCCCOC)c2)C(C)C)C1 (racemic): 110
COCCCOc1cc(C(=O)N(C(C)C)[C@@H]2CC[C@H](CCN(C(=O)Cc3ccccc3OC)C3CC3)NC2)ccc1OC [Example 73, trifluoroacetate]: 4.6
CCCN(CC1CC1)C(=O)C[C@H]1CC[C@@H](N(C(=O)c2ccc(OC)c(OCCCOC)c2)C(C)C)CN1 (racemic) [Example 20, hydrochloride]: 420
COCCCOc1cc(C(=O)N(C(C)C)[C@@H]2CC[C@H](CCN(C(=O)Cc3ccccc3)C(C)C)NC2)ccc1OC (racemic) [Example 55, hydrochloride]: 690
CCN(CCc1ccccc1)C(=O)OC[C@@H]1CNC[C@H](N(C(=O)c2ccc(OC)c(OCCCOC)c2)C(C)C)C1 (racemic): 150

Provide the reported IC50 of each entry below, same order.
1. COCCCOc1cc(C(=O)N(C(C)C)[C@@H]2CC[C@H](CCN(C(=O)C=C(C)C)C3CC3)NC2)ccc1OC [Example 68, hydrochloride]
2. COCCCOc1cc(C(=O)N(C(C)C)[C@@H]2CCCNC2)ccc1OC [Example 1, hydrochloride]
3. COCCCOc1cc(C(=O)N(C(C)C)C2CNC[C@@H](COC(=O)NCCc3ccccc3)C2)ccc1OC (mixture of isomers) [Example 31, hydrochloride]
4. COCCCOc1cc(C(=O)N(C(C)C)[C@@H]2CC[C@@H](CCN(C(=O)Cc3ccccc3)C3CC3)NC2)ccc1OC (racemic) [Example 23, hydrochloride]

6.7
330
240
330

Go through the items and report each one's IC50.
1. COCCCOc1cc(C(=O)N(C(C)C)[C@@H]2CC[C@H](CCN(C(=O)Cc3cccc(C(=O)O)c3)C3CC3)NC2)ccc1OC [Example 86, hydrochloride]
2. COCCCOc1cc(C(=O)N(C(C)C)[C@H]2CNC[C@H](COC(=O)NC(C)C)C2)ccc1OC (racemic) [Example 57, hydrochloride]
3. COCCCOc1cc(C(=O)N(C(C)C)[C@@H]2CC[C@H](CCN(C(=O)Cc3ccccc3Cl)C3CC3)NC2)ccc1OC [Example 72, trifluoroacetate]
4. COCCCOc1cc(C(=O)N(C(C)C)[C@@H]2CC[C@H](CCN(C(=O)CCOC)C3CC3)NC2)ccc1OC [Example 64, hydrochloride]
5. COCCCOc1cc(C(=O)N(C(C)C)[C@@H]2CC[C@H](CC(=O)N(C(C)C)C3CCCCC3)NC2)ccc1OC (racemic) [Example 51, hydrochloride]

[4, 830, 3.7, 16.8, 500]
